Listed compounds paired with reported IC50
- Test Target: IDH1 R132H (Homo sapiens, UniProt O75874, R132H)
- Sequence (O75874 whole entry R132H): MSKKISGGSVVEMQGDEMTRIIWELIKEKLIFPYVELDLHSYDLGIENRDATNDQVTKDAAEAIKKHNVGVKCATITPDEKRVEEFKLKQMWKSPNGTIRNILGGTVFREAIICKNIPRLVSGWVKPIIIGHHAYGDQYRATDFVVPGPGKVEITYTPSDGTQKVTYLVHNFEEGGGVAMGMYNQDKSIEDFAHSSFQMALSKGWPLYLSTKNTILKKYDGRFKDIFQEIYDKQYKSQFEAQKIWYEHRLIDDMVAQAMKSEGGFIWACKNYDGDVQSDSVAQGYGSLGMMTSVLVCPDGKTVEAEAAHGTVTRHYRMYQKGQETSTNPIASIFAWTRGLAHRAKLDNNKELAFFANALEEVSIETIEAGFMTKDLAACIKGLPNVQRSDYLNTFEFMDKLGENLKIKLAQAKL
- Procedure Details: IDH1 R132H enzymatic assay (NADPH depletion coupled to diaphorase/resazurin)
- Format: biochemical
- Test Parameters: enzymatic inhibition, IDH1 R132H

Worked examples, 6 compounds total:
CCc1ccc(F)cc1-n1c(C=C(C)C)c(C(=O)N2CCNCC2)cc(-c2nc(-c3ccc(C(F)(F)F)cc3)cs2)c1=O; < 0.3 µM
CCOC(=O)c1ncsc1-n1c2c(cc(-c3nc(-c4ccc(Cl)cc4)cs3)c1=O)C(=O)CC(C)(C)C2; 1 to 5 µM
CCc1ccc(F)cc1-n1c(C=C(C)C)c(C(=O)N2CCNCC2)cc(-c2nc(-c3ccc(C(F)(F)F)nc3)cs2)c1=O; < 0.3 µM
CN1CCN(Cc2cccc(-n3c4c(cc(-c5nc(-c6ccc(Cl)cc6)cs5)c3=O)C(=O)CC(C)(C)C4)c2)CC1; 5 to 20 µM
CCc1cccc(CC)c1-n1c(CC(C)C)c(C(=O)N2CCNCC2)cc(-c2nc(-c3ccc(Cl)nc3)c(C)s2)c1=O; < 0.3 µM
CCOc1ncc(Cl)cc1-n1c(C=C(C)C)c(C(=O)N2CCNCC2)cc(-c2nc(-c3ccc(C(F)F)cn3)cs2)c1=O; 0.3 to 1 µM

# evaluate next
[Q] Quick one: give measured IC50 for CCc1cccc(Cl)c1-n1c(C=C(C)C)c(C(=O)N2CCNCC2)cc(-c2nc(-c3ccc(Cl)cc3)cs2)c1=O
[A] < 0.3 µM

Attribution: patent US10703746B2
